- Study System: IL-23 (human, p19/p40 heterodimer) (Homo sapiens) (UniProt Q9NPF7+P29460)
- Sequence (Q9NPF7 20-189, chain 1 of 2): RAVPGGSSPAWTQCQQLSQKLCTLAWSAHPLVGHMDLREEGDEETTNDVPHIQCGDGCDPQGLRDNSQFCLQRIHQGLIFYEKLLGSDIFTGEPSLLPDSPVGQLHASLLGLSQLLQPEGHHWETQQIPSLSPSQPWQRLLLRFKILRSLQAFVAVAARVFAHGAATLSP
- Sequence (P29460 23-328, chain 2 of 2): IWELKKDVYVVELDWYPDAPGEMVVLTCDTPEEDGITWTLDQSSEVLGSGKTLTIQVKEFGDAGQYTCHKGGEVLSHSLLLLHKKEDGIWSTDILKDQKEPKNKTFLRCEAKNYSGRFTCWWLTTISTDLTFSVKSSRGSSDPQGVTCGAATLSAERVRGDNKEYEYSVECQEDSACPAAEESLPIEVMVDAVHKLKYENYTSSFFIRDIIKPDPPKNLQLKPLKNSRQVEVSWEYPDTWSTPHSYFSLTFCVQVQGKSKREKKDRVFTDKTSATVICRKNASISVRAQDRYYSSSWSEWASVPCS
- Experiment Summary: filter
- Conditions: deoxy A,G; 2'-OMe C,U; dI at G25; 3'-idT [25]; DPBS Ca Mg
Measure Name: Kd (nM)
Could you give me the number in nM? Just the number is fine.

Req: Give its Kd value. Item: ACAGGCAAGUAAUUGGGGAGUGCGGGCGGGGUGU [ARC1606]
Resp: 5

----------
- Study System: IL-23 (human, p19/p40 heterodimer) (Homo sapiens) (UniProt Q9NPF7+P29460)
- Experiment Summary: filter
- Conditions: deoxy A,G; 2'-OMe C,U; dI at G18; 3'-idT [18]; DPBS Ca Mg
Measure Name: pKd
pKd is defined as minus the log10 of a concentration measured in mol/L.

Req: Recorded pKd for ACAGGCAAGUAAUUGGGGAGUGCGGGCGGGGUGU [ARC1598] , please?
Resp: 8.33
